System: ERK1;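 further: KINOMEscan kinase panel screen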
Construct: gene MAPK3
Conditions: concentration: 1 μM, replicates: in singlicate; n = 1
The following compounds are shown together with reported %Inh values.
Metric Name: %Inh (%)

>>> print(df.to_string())
                                    compound  metric_name  unit_name  test_value
 0  Cc1c(Cn2c(C)nn3c(=O)cc(N4CCOC(C)C4)nc23)cccc1C(F)(F)F (centres unmarked) [GSK2344444]         %Inh          %           0
 1  CCc1nc(-c2cccc(C)c2)c(-c2ccnc(NCc3ccccc3)c2)s1         %Inh          %           0
 2  Cc1nnc(-c2ccc3ncc(-c4ccc(S(C)=O)cc4)n3c2)o1 (centres unmarked)         %Inh          %           0
 3  Fc1ccc(-c2ncn(CCCN3CCOCC3)c2-c2cccnc2)cc1 [SB-211743]         %Inh          %           0
 4  N#Cc1ccc(-c2cc(-c3c[nH]nc3-c3ccccn3)ccn2)cc1 [GW693028]         %Inh          %           6
 5  COC(=O)Nc1nc2cc(Oc3ccc(NC(=O)Nc4cc(F)ccc4F)cc3)ccc2[nH]1.Cl [GW701424]         %Inh          %           0
 6  NCC(NC(=O)c1cc(-c2cn[nH]c2)c(-c2ccnc3[nH]ccc23)s1)c1ccccc1.O=C(O)C(F)(F)F.O=C(O)C(F)(F)F (centres unmarked) [GSK1325775]         %Inh          %           0
 7  O=C1NC(=O)C(N2CCc3ccccc32)=C1c1cccc(Cl)c1 [SB-408010]         %Inh          %           0
 8             CCn1cnc2c(N)ncnc21 [GW345098]         %Inh          %           2
 9  CC(C)Oc1ccc2c(-c3ccnc(Nc4ccc(N5CCN(C)CC5)cc4)n3)cnn2n1 [GW696155]         %Inh          %           0
10  CCc1ccnc(/C=C/c2n[nH]c3cc(Sc4ccccc4C(=O)NC)ccc23)c1         %Inh          %           0
11  Cc1nnc(-c2ccc(C)c(-c3ccc(C(=O)Nc4ccc(NS(C)(=O)=O)cc4)cc3)c2)o1 [GW702865]         %Inh          %          10
12  NS(=O)(=O)c1cccc(-c2ccc3nccc(-c4cccc(S(N)(=O)=O)c4)c3c2)c1 [GW867253]         %Inh          %           0
13  COc1cc(Nc2nccc(N3CCC(NC(=O)c4cccc(NC(C)=O)c4)C3)n2)cc(OC)c1OC (centres unmarked) [GSK1379754]         %Inh          %           0
